Give measured Decreased fold of binding to ligand after Conjugating with S48 for each item. Keep answers brief.
Molecular target: T1, IL-10R1-Fc (UniProt Q13651 22-235, limits assumed)
T1 sequence (looked up): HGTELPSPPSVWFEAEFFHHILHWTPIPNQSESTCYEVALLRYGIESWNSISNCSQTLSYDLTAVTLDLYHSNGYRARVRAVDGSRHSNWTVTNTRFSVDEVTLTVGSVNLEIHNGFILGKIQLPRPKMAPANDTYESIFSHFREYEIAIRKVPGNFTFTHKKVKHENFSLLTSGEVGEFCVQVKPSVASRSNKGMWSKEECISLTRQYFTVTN
Test: ELISA, IL-10R1-Fc coated
Value expressed in fold; do not type the unit.

Need Decreased fold of binding to ligand after Conjugating with S48, item IL-10 Phe143Cys-S48 (ligand, human, UniProt P22301 19-178, looked up, S48 on Cys 143, mature) SPGQGTQSENSCTHFPGNLPNMLRDLRDAFSRVKTFFQMKDQLDNLLLKESLLEDFKGYLGCQALSEMIQFYLEEVMPQAENQDPDIKAHVNSLGENLKTLRLRLRRCHRFLPCENKSKAVEQVKNAFNKLQEKGIYKAMSECDIFINYIEAYMTMKIRN
7

Query (binder): IL-10 Arg27Cys-S48 (ligand, human, UniProt P22301 19-178, looked up, S48 on Cys 27, mature) SPGQGTQSENSCTHFPGNLPNMLRDLCDAFSRVKTFFQMKDQLDNLLLKESLLEDFKGYLGCQALSEMIQFYLEEVMPQAENQDPDIKAHVNSLGENLKTLRLRLRRCHRFLPCENKSKAVEQVKNAFNKLQEKGIYKAMSEFDIFINYIEAYMTMKIRN ; field requested: Decreased fold of binding to ligand after Conjugating with S48
12

Need Decreased fold of binding to ligand after Conjugating with S48, item IL-10 Ser141Cys-S48 (ligand, human, UniProt P22301 19-178, looked up, S48 on Cys 141, mature) SPGQGTQSENSCTHFPGNLPNMLRDLRDAFSRVKTFFQMKDQLDNLLLKESLLEDFKGYLGCQALSEMIQFYLEEVMPQAENQDPDIKAHVNSLGENLKTLRLRLRRCHRFLPCENKSKAVEQVKNAFNKLQEKGIYKAMCEFDIFINYIEAYMTMKIRN
19

Looking for the measured Decreased fold of binding to ligand after Conjugating with S48 of IL-10 Leu46Cys-S48 (ligand, human, UniProt P22301 19-178, looked up, S48 on Cys 46, mature) SPGQGTQSENSCTHFPGNLPNMLRDLRDAFSRVKTFFQMKDQLDNCLLKESLLEDFKGYLGCQALSEMIQFYLEEVMPQAENQDPDIKAHVNSLGENLKTLRLRLRRCHRFLPCENKSKAVEQVKNAFNKLQEKGIYKAMSEFDIFINYIEAYMTMKIRN , can you help?
22

Any idea what its Decreased fold of binding to ligand after Conjugating with S48 is? The binder is IL-10 Leu105Cys-S48 (ligand, human, UniProt P22301 19-178, looked up, S48 on Cys 105, mature) SPGQGTQSENSCTHFPGNLPNMLRDLRDAFSRVKTFFQMKDQLDNLLLKESLLEDFKGYLGCQALSEMIQFYLEEVMPQAENQDPDIKAHVNSLGENLKTLRLRCRRCHRFLPCENKSKAVEQVKNAFNKLQEKGIYKAMSEFDIFINYIEAYMTMKIRN
5

Would you mind telling me what Decreased fold of binding to ligand after Conjugating with S48 value was observed for IL-10 Phe30Cys-S48 (ligand, human, UniProt P22301 19-178, looked up, S48 on Cys 30, mature) SPGQGTQSENSCTHFPGNLPNMLRDLRDACSRVKTFFQMKDQLDNLLLKESLLEDFKGYLGCQALSEMIQFYLEEVMPQAENQDPDIKAHVNSLGENLKTLRLRLRRCHRFLPCENKSKAVEQVKNAFNKLQEKGIYKAMSEFDIFINYIEAYMTMKIRN ?
6

Record request: Decreased fold of binding to ligand after Conjugating with S48 value, item IL-10 Ser8Cys-S48 (ligand, human, UniProt P22301 19-178, looked up, S48 on Cys 8, mature) SPGQGTQCENSCTHFPGNLPNMLRDLRDAFSRVKTFFQMKDQLDNLLLKESLLEDFKGYLGCQALSEMIQFYLEEVMPQAENQDPDIKAHVNSLGENLKTLRLRLRRCHRFLPCENKSKAVEQVKNAFNKLQEKGIYKAMSEFDIFINYIEAYMTMKIRN
3

Requested read-out: Decreased fold of binding to ligand after Conjugating with S48. Entry: IL-10 Ile69Cys-S48 (ligand, human, UniProt P22301 19-178, looked up, S48 on Cys 69, mature) SPGQGTQSENSCTHFPGNLPNMLRDLRDAFSRVKTFFQMKDQLDNLLLKESLLEDFKGYLGCQALSEMCQFYLEEVMPQAENQDPDIKAHVNSLGENLKTLRLRLRRCHRFLPCENKSKAVEQVKNAFNKLQEKGIYKAMSEFDIFINYIEAYMTMKIRN
3

Would you kindly share the measured Decreased fold of binding to ligand after Conjugating with S48 for IL-10 Met22Cys-S48 (ligand, human, UniProt P22301 19-178, looked up, S48 on Cys 22, mature) SPGQGTQSENSCTHFPGNLPNCLRDLRDAFSRVKTFFQMKDQLDNLLLKESLLEDFKGYLGCQALSEMIQFYLEEVMPQAENQDPDIKAHVNSLGENLKTLRLRLRRCHRFLPCENKSKAVEQVKNAFNKLQEKGIYKAMSEFDIFINYIEAYMTMKIRN ?
5

Which measured Decreased fold of binding to ligand after Conjugating with S48 value corresponds to IL-10 Gly17Cys-S48 (ligand, human, UniProt P22301 19-178, looked up, S48 on Cys 17, mature) SPGQGTQSENSCTHFPCNLPNMLRDLRDAFSRVKTFFQMKDQLDNLLLKESLLEDFKGYLGCQALSEMIQFYLEEVMPQAENQDPDIKAHVNSLGENLKTLRLRLRRCHRFLPCENKSKAVEQVKNAFNKLQEKGIYKAMSEFDIFINYIEAYMTMKIRN ?
15

So what's the measured Decreased fold of binding to ligand after Conjugating with S48 for this one? IL-10 Gln42Cys-S48 (ligand, human, UniProt P22301 19-178, looked up, S48 on Cys 42, mature) SPGQGTQSENSCTHFPGNLPNMLRDLRDAFSRVKTFFQMKDCLDNLLLKESLLEDFKGYLGCQALSEMIQFYLEEVMPQAENQDPDIKAHVNSLGENLKTLRLRLRRCHRFLPCENKSKAVEQVKNAFNKLQEKGIYKAMSEFDIFINYIEAYMTMKIRN
18

Need Decreased fold of binding to ligand after Conjugating with S48 of IL-10 Thr35Cys-S48 (ligand, human, UniProt P22301 19-178, looked up, S48 on Cys 35, mature) SPGQGTQSENSCTHFPGNLPNMLRDLRDAFSRVKCFFQMKDQLDNLLLKESLLEDFKGYLGCQALSEMIQFYLEEVMPQAENQDPDIKAHVNSLGENLKTLRLRLRRCHRFLPCENKSKAVEQVKNAFNKLQEKGIYKAMSEFDIFINYIEAYMTMKIRN , thanks.
36

Sample IL-10 Leu94Cys-S48 (ligand, human, UniProt P22301 19-178, looked up, S48 on Cys 94, mature) SPGQGTQSENSCTHFPGNLPNMLRDLRDAFSRVKTFFQMKDQLDNLLLKESLLEDFKGYLGCQALSEMIQFYLEEVMPQAENQDPDIKAHVNSCGENLKTLRLRLRRCHRFLPCENKSKAVEQVKNAFNKLQEKGIYKAMSEFDIFINYIEAYMTMKIRN — what was its Decreased fold of binding to ligand after Conjugating with S48?
5
